test system: astro; test: Drug repurposing screens with cells derived from glioblastoma tumor samples (AID 1345199); conditions: viability, ATP luminescence, 48 h; series mostly up to 45.9 µM; further: nearly all actives have a fitted effect of over 40% in size
Records with an inconclusive call do not appear. Activity calls are given as the source filed them. The call rests on the fitted dose curve; in most records, active means well fitted inhibition curve with a large enough effect; inconclusive means small, poorly fitted or top-dose-only effect; inactive means flat fitted curve, though single readings scatter.
Thanks in advance; please answer with one of these: active, inactive

Below are worked cases with known answers.
In [3]: df
Out[3]:
                                   compound  category
0  CNc1cc(OC)c(C(=O)N[C@H]2CCN(Cc3ccccc3)[C@H]2C)cc1Cl  inactive
1  CC(=O)OCC(=O)[C@@]12OC3(CCCC3)O[C@@H]1C[C@H]1[C@@H]3CCC4=CC(=O)C=C[C@]4(C)[C@@]3(F)[C@@H](O)C[C@@]12C  inactive
2       Nc1ccn([C@H]2CS[C@@H](CO)O2)c(=O)n1  inactive
3  O=C(O)c1cc(=O)c2c3nc4ccccc4oc-3cc(=O)c2[nH]1  inactive
4  CC[C@@H](C(=O)[C@@H](C)[C@@H](O)[C@H](C)CCc1ccc(C)c(O)c1C(=O)O)[C@H]1O[C@](CC)([C@H]2CC[C@](O)(CC)[C@H](C)O2)C[C@@H]1C    active

Each compound tested received a call. Report the one for `CCCC(=O)O[C@]1(C(=O)COC(C)=O)CC[C@H]2[C@@H]3C[C@H](F)C4=CC(=O)C=C[C@]4(C)[C@@]3(F)[C@@H](O)C[C@@]21C` .
inactive

Each compound tested received a call. Report the one for CCC(=O)NCCC1CCc2ccc3c(c21)CCO3 (centres undefined) .
inactive

Each compound tested received a call. Report the one for `O=C(O)CN(CCN(CC(=O)O)CC(=O)O)CC(=O)O` .
inactive

Each compound tested received a call. Report the one for CC(=O)N(CC(C)C(=O)O)c1c(I)cc(I)c(N)c1I (centres undefined) .
inactive
